Reported IC50 by item:
assay-system: UniProt Q15910
Sequence (Q15910 whole entry): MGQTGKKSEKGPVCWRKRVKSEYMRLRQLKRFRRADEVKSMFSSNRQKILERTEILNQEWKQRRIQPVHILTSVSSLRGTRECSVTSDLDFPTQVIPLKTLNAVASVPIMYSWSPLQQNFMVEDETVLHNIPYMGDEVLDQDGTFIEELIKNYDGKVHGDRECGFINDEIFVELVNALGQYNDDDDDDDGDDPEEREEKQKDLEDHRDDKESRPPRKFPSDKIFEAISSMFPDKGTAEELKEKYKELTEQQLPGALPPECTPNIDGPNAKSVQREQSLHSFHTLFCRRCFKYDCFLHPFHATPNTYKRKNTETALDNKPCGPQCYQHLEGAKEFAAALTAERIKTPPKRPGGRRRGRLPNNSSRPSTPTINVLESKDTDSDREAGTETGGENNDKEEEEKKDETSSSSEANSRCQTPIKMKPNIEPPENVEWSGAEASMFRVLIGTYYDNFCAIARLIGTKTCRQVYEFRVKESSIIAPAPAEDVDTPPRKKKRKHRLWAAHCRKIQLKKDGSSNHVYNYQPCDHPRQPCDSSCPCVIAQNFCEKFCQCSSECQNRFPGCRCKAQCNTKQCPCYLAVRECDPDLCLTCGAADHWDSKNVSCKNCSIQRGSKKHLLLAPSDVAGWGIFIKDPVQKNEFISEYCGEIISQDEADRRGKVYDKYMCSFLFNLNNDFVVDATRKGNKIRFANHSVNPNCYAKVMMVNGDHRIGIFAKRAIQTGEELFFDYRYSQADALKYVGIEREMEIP
Sequence (O75530 whole entry partner): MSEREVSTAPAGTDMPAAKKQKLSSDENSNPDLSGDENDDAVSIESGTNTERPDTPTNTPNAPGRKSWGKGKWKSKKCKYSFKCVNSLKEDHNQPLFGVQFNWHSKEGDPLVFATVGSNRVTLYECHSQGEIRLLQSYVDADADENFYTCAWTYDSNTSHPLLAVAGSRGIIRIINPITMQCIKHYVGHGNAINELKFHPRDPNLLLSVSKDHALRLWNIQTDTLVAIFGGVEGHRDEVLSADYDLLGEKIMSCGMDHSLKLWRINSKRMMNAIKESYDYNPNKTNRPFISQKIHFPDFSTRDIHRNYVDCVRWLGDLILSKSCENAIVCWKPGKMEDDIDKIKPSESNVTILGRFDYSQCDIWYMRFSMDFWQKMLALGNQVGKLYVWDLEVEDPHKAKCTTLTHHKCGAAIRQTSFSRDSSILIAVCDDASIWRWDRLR
Sequence (Q15022 whole entry partner): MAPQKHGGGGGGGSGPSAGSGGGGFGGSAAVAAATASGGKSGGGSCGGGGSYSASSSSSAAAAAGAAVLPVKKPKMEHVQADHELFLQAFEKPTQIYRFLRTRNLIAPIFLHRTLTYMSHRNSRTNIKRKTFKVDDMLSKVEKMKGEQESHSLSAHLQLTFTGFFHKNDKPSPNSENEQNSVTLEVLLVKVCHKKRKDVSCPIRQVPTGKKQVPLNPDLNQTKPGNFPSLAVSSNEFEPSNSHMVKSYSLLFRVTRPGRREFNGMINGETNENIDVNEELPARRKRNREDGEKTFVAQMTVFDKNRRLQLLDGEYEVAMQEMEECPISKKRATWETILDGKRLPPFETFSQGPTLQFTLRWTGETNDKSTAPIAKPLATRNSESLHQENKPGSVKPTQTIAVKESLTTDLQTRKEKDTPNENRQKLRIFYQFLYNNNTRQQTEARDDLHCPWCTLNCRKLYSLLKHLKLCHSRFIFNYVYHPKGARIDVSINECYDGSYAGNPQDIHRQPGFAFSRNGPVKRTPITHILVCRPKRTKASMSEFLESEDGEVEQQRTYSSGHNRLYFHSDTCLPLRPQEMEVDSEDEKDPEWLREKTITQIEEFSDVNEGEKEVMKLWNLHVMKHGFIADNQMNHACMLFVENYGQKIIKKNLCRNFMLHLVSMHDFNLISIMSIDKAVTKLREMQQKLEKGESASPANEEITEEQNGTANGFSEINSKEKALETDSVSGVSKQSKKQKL
Sequence (Q09028 whole entry partner): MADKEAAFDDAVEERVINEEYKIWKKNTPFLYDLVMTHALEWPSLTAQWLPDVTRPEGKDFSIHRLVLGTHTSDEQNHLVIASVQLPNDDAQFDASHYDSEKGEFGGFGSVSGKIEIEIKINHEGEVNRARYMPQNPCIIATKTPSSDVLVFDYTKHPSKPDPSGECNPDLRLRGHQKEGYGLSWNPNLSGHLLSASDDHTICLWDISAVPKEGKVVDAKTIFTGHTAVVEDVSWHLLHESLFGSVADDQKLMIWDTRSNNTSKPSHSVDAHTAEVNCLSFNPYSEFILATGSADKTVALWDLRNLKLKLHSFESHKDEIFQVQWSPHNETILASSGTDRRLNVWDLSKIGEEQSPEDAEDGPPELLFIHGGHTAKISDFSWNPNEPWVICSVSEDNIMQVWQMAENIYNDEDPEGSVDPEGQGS
Sequence (Q6ZN18 whole entry partner): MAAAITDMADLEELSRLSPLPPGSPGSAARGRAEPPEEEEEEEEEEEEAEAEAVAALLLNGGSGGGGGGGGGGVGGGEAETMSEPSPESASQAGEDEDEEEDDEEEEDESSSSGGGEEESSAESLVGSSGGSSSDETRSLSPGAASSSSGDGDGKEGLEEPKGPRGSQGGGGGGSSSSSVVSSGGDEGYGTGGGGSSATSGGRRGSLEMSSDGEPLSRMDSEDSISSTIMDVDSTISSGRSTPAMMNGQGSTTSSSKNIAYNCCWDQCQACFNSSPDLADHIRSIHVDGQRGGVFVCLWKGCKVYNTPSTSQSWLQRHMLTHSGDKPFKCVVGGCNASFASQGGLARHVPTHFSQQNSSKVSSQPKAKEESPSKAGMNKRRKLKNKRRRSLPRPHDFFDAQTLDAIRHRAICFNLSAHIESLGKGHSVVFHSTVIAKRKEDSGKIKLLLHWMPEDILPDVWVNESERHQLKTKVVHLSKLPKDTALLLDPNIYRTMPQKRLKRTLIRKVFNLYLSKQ
assay-explanation: EZH2 inhibition assay (Reaction Biology Corporation)
Format: biochemical
Protocol: The EZH2 inhibitory ability of the synthesized adduct was assessed by Reaction Biology Corporation, Malvern, PA (http://www.reactionbiology.com).

compound	IC50 / nM
CCN(c1cc(-c2cccc(N(Cc3ccccc3)C(=O)c3cc(C(C)C)c(O)cc3O)c2)cc(C(=O)NCc2c(C)cc(C)[nH]c2=O)c1C)C1CCOCC1 [Compound 10]	641
CCCN(C(=O)c1cc(C(C)C)c(O)cc1O)c1cccc(-c2cc(C(=O)NCc3c(C)cc(C)[nH]c3=O)c(C)c(N(CC)C3CCOCC3)c2)c1 [Compound 9]	40.1
CCN(c1cc(-c2ccc(NC(=O)c3cc(C(C)C)c(O)cc3O)cc2)cc(C(=O)NCc2c(C)cc(C)[nH]c2=O)c1C)C1CCOCC1 [Compound 1]	6.14
CCN(c1cc(-c2cccc(N(C)C(=O)c3cc(C(C)C)c(O)cc3O)c2)cc(C(=O)NCc2c(C)cc(C)[nH]c2=O)c1C)C1CCOCC1 [Compound 7]	6.29

---

Heads up, these compounds all have IC50 values measured for HSP90a (Homo sapiens).

smi	IC50 [nM]
CCN(c1cc(-c2ccc(N(C)C(=O)c3cc(C(C)C)c(O)cc3O)cc2)cc(C(=O)NCc2c(C)cc(C)[nH]c2=O)c1C)C1CCOCC1	343
CCN(C(=O)c1cc(C(C)C)c(O)cc1O)c1cccc(-c2cc(C(=O)NCc3c(C)cc(C)[nH]c3=O)c(C)c(N(CC)C3CCOCC3)c2)c1	63.6
CCN(c1cc(-c2cccc(N(Cc3ccccc3)C(=O)c3cc(C(C)C)c(O)cc3O)c2)cc(C(=O)NCc2c(C)cc(C)[nH]c2=O)c1C)C1CCOCC1	2840
CCN(c1cc(-c2cccc(N(C)C(=O)c3cc(C(C)C)c(O)cc3O)c2)cc(C(=O)NCc2c(C)cc(C)[nH]c2=O)c1C)C1CCOCC1	60.1
